These entries and their values trace back to PubChem BioAssay.

# run_description: E. coli DRC41 culture turbidity changes, primary screen, E. coli filamentation inducer project, strain DRC41, OD650, 48 h (AID 1152);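 further: E. coli MC1000 strain DRC41 lacking acrAB efflux pump and sulA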
# condition_details: E. coli DRC41 (acrAB sulA), higher = more signal, called active from +8 up or from −8 down
Classify by measured z-score: Satisfied if it is equal to or exceeds -0.5, Not satisfied if it is smaller.

{"molecule": "CC(C)N1CC=CC23O[C@@H]4/C=C\\CCCOC(=O)C4[C@H]2C(=O)N(CCCCCCO)[C@@H]3C1=O (some centres undefined)", "assigned_category": "Satisfied"}
{"molecule": "CCOC(=O)C[C@H]1[C@H](OC(=O)c2ccc(-c3ccccc3)cc2)[C@@H](NC(=O)Cc2ccc(OC)cc2)c2cc(OCCCO)ccc2N1C(=O)Cc1ccc(OC)cc1", "assigned_category": "Satisfied"}
{"molecule": "CCOC(=O)C[C@H]1[C@H](OC(=O)c2ccccc2-c2ccccc2)[C@@H](NC(=O)c2ccc3ccccc3n2)c2cc(OCCCO)ccc2N1C(=O)c1ccccc1", "assigned_category": "Not satisfied"}
{"molecule": "CCCCC(=O)N(CCN1CCOCC1)[C@@H]1CC(C(=O)NCCO)=C[C@H](Oc2c(I)cc(CO)cc2OC)[C@H]1O", "assigned_category": "Satisfied"}
{"molecule": "O=C(CS)NCCCCCNC(=O)[C@@H]1C[C@@H]2C(=O)N[C@@H](Cc3ccccc3)C(=O)N2[C@@H]1c1cccc(OCCO)c1", "assigned_category": "Satisfied"}
{"molecule": "COc1cc(CO)cc(I)c1O[C@H]1C=C(C(=O)NCCO)C[C@@H](NCC2CCCCC2)[C@@H]1O", "assigned_category": "Satisfied"}
{"molecule": "COCCOC(=O)N1C(=O)[C@@]2(c3ccccc31)[C@H](c1ccc(OCCO)cc1)N1[C@H](c3ccccc3)[C@H](c3ccccc3)OC(=O)[C@H]1[C@@H]2C(=O)N1CCCCCCC1", "assigned_category": "Not satisfied"}
{"molecule": "O=C1C[C@@](C(=O)NCc2ccccc2)(c2ccc([N+](=O)[O-])cc2)[C@@H](c2ccc(CO)cc2I)N1CC12CC3CC(CC(C3)C1)C2", "assigned_category": "Satisfied"}
{"molecule": "COc1cc2c(cc1O)C(c1ccc(CN3CCCC3)cc1)N(C)CC2 (centres undefined)", "assigned_category": "Satisfied"}
{"molecule": "COCCOC(=O)N1C(=O)[C@@]2(c3cc(C#CCCO)ccc31)[C@H](C(N)=O)[C@H]1C(=O)O[C@H](c3ccccc3)[C@H](c3ccccc3)N1[C@@H]2c1ccc(OCCO)cc1", "assigned_category": "Satisfied"}
{"molecule": "C=C[C@@H](C)[C@@H](OC(=O)Nc1ccc(SC)cc1)c1ccc(OCCO)cc1", "assigned_category": "Not satisfied"}
{"molecule": "COC(=O)[C@@]1(Cc2ccc(OC)cc2)[C@H]2c3cc(C(=O)N4CCCC4)n(Cc4cc(C)n(C)n4)c3C[C@H]2CN1C(=O)c1ccccc1", "assigned_category": "Not satisfied"}
{"molecule": "C[C@@H]1ON(c2ccc(I)cc2)[C@H](c2ccc(OC(=O)OC(C)(C)C)cc2)[C@H]1C(=O)N1C(=O)OC[C@H]1Cc1ccccc1", "assigned_category": "Satisfied"}
